Source: patent US20200031811A1

target: MNK1 (Homo sapiens); construct: purchased Life Technologies or Carna Biosciences PV6023 or 02-145; host or cells: baculovirus infected insect cells; assay: MNK inhibition assay (Z-Lyte kinase assay, Ser/Thr 7 peptide); type: biochemical; conditions: at 10 μM; read-out: Inhibition of MNK1 activity at indicated concentration
Sequence (Q9BUB5 whole entry): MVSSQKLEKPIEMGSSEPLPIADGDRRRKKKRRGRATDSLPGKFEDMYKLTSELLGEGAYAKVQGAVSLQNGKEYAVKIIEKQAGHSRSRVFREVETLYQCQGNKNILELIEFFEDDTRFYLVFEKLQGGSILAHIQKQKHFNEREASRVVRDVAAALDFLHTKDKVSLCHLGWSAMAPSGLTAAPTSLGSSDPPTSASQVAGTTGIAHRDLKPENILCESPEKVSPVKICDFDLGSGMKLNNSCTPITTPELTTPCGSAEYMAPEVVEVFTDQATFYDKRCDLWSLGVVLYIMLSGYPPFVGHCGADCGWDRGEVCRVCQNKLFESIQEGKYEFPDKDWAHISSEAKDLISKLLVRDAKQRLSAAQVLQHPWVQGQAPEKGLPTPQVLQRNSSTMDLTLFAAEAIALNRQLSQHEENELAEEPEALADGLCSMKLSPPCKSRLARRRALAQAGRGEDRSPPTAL
assay.metric: inhibition at 10 µM (%)

Record excerpt, results attached:
N#Cc1ccccc1-c1cncc2ccc(CN3CCC(N)CC3)cc12 [Example 8]    95
NCCNc1ccc2cncc(-c3cc4ccccc4o3)c2c1 [Example 100]    51
N[C@H]1CC[C@@H](CNc2ccc3cncc(-c4cc5ccccc5o4)c3c2)CC1 [Example 231]    54

[I] c1ccc(-c2cnnc3ccc(CN4CCNCC4)cc23)cc1 [Example 83]
[II] COC(=O)c1cccc(-c2cncc3ccc(CN4CCC(N)CC4)cc23)c1 [Example 12]
[III] O=c1[nH]cc(-c2cc3ccccc3o2)c2cc(NCc3ccncc3)ccc12 [Example 89]
Exercise: # rank_down: sort by inhibition at 10 µM, max first Write out the labels following the order that was asked for.
Key: II, I, III
(II: 92%, I: 54%, III: 35%)

[a] FC(F)(F)c1cc(NCc2ccc3cncc(-c4cc5ccccc5o4)c3c2)ccn1 [Example 64]
[b] Nc1ccc(-c2cncc3ccc(CN4CCC(N)CC4)cc23)cn1 [Example 17]
Exercise: From the items above, decide which of a and b has the lower inhibition at 10 µM reading. Returns: label corresponding to the selected item.
Key: a
(a: 41%, b: 100%)
